protocol.description: Quantitative High-Throughput drug screen in 47 multiple myeloma cell lines against the NCATS MIPE library collection: H1112_PLB cell viability assay (AID 1918967; note: nearly all actives have a fitted effect of over 30% in size; note: potency is the fitted concentration of half-maximal effect)
settings: H1112 myeloma cells viability, ATP luminescence, 48 h; series mostly up to 45.8 µM
Records with an inconclusive call do not appear. Active and inactive are the calls of the source. Calls come from the whole dose curve; as a rule, active = well fitted cell-killing curve with a large enough effect; inconclusive = small, poorly fitted or top-dose-only effect, or effect the other way; inactive = no such curve, though single readings can be large or run the other way.
assay.endpoint: Potency

# molecule, Potency
rows = [
    ("CO[C@H]1CCC(O[C@H]2C[C@H]([C@]3(C)CC[C@]4(C[C@H](O)[C@@H](C)[C@@H]([C@@H](C)C=C(C)C(=O)[C@H](C)C[C@H](C)C(=O)O)O4)O3)O[C@]3(O[C@@H]([C@H]4O[C@@](O)(CO)[C@H](C)C[C@H]4C)C[C@H]3C)[C@H]2C)O[C@H]1C (stereo partly drawn)", "662 nM (active)"),
    ("COC(=O)[C@@H](N)CCCN=C(N)N[N+](=O)[O-]", "inactive"),
    ("C[C@]12CC[C@@H]3[C@@H](CCC4=CC(=O)CC[C@@H]43)[C@@H]1CC[C@@H]2OC(=O)CCc1ccccc1", "inactive"),
    ("CC(=O)OCC1=C(C(=O)O)N2C(=O)[C@@H](N)[C@@H]2SC1", "inactive"),
    ("COc1ccc(CC2NCCc3cc(OC)c(OC)cc32)cc1OC (stereo not drawn)", "inactive"),
]

Noted for c1ccc2c(CN3CCNCC3)cccc2c1 : its Potency reads inactive

Noted for CC(=O)N(C)c1cccc(-c2ccnc3c(C(=O)c4cccs4)cnn23)c1 : its Potency reads inactive

Noted for C[C@H]([C@H](O)CCC(C)(C)O)[C@H]1CC[C@@]2(O)C3=CC(=O)[C@@H]4C[C@@H](O)[C@@H](O)C[C@]4(C)[C@@H]3CC[C@]12C : its Potency reads inactive

###

protocol.description: qHTS of pediatric cancer cell lines to identify multiple opportunities for drug repurposing: Primary screen for NB-EBc1 cells (AID 1347095)
settings: NB-EBc1 neuroblastoma viability, CellTiter-Glo luminescence, 48 h; series mostly up to 46 µM
Records with an inconclusive call do not appear. Calls of active or inactive are those of the source. Calls follow the shape of the dose curve; as a rule, active = well fitted cell-killing curve with a large enough effect; inconclusive = small, poorly fitted or top-dose-only effect; inactive = no such curve, though single readings can be large or run the other way.
Mark one answer only. Choices: 1 (yes) for active, 0 (no) for inactive

Challenge: Recorded test call requested for Oc1ccc2c3c1O[C@H]1[C@@H](O)C=C[C@H]4[C@@H](C2)NCC[C@@]341
Response given: 0 (no)

Challenge: Recorded test call requested for C1=C2CCCN[C@H]2[C@@H]2C[C@H]1[C@@H]1CCCCN1C2
Response given: 0 (no)

Challenge: Recorded test call requested for O=[N+]([O-])c1c(Cl)c(Cl)cc(Cl)c1Cl
Response given: 0 (no)

Challenge: Recorded test call requested for Oc1ccc2c3c1O[C@H]1c4[nH]c5c(c4C[C@@]4(O)[C@@H](C2)N(CC2CC2)CC[C@]314)C[C@@]1(O)[C@H]2Cc3ccc(O)c4c3[C@@]1(CCN2CC1CC1)[C@H]5O4
Response given: 0 (no)

Challenge: Recorded test call requested for O=C(O)COc1nc(Cl)c(Cl)cc1Cl
Response given: 0 (no)

Challenge: Recorded test call requested for CC(=O)[O][Hg][c]1ccccc1
Response given: 1 (yes)

Challenge: Recorded test call requested for CC(O)CN1CCN(CC(=O)[O-])CCN(CC(=O)[O-])CCN(CC(=O)[O-])CC1.[Gd+3] (centres undefined)
Response given: 0 (no)

Challenge: Recorded test call requested for O=C(O)CCCOc1ccc(Cl)cc1Cl
Response given: 0 (no)

Challenge: Recorded test call requested for O=C1C(I)=CC(=C(c2cc(I)c(O)c(I)c2)c2ccccc2C(=O)O)C=C1I
Response given: 0 (no)

Challenge: Recorded test call requested for CCOCCOC(C)=O
Response given: 0 (no)

Challenge: Recorded test call requested for CC(C)(C)[C@]1(O)C[C@@H]2OC(=O)C[C@@]23C(=O)O[C@@H]2OC(=O)[C@H](O)C213 (some centres undefined)
Response given: 0 (no)

Challenge: Recorded test call requested for CCN(CC)C(=O)c1ccc(C2=CC3(CCNCC3)Oc3cccc(O)c32)cc1
Response given: 0 (no)

Challenge: Recorded test call requested for C=CC(=O)NCNC(=O)C=C
Response given: 0 (no)

Challenge: Recorded test call requested for Cc1nc(-c2ccc(-c3ccc(C(=O)N4CCc5cc6c(cc54)C4(CCN(C)CC4)CO6)cc3)c(C)c2)no1
Response given: 0 (no)

Challenge: Recorded test call requested for Nc1ccc(Sc2ccc(N)cc2)cc1
Response given: 0 (no)

Challenge: Recorded test call requested for Cc1ccccc1-n1c(Cn2ncc3c(N)ncnc32)nc2cccc(C)c2c1=O
Response given: 1 (yes)

Challenge: Recorded test call requested for CCOC(=O)c1cncn1[C@H](C)c1ccccc1
Response given: 0 (no)

Challenge: Recorded test call requested for c1cc2ccc3cccc4ccc(c1)c2c34
Response given: 0 (no)

Challenge: Recorded test call requested for Fc1cc(Br)ccc1CBr
Response given: 0 (no)

Challenge: Recorded test call requested for CS(=O)(=O)c1ccc(C(=O)C2C(=O)CCCC2=O)c([N+](=O)[O-])c1
Response given: 0 (no)

Challenge: Recorded test call requested for N#C[C@H](O[C@@H]1O[C@H](CO[C@@H]2O[C@H](CO)[C@H](O)[C@H](O)[C@H]2O)[C@H](O)[C@H](O)[C@H]1O)c1ccccc1
Response given: 0 (no)

Challenge: Recorded test call requested for COc1ccc(N(C(=O)Oc2c(C)cccc2C)c2ccnc(Nc3ccc(N4CCN(C)CC4)cc3)n2)c(OC)c1
Response given: 1 (yes)

Challenge: Recorded test call requested for CC(=Cc1csc(C)n1)[C@@H]1C[C@H]2O[C@@H]2CCC[C@H](C)[C@@H](O)[C@@H](C)C(=O)C(C)(C)[C@@H](O)CC(=O)O1
Response given: 1 (yes)

Challenge: Recorded test call requested for CC1(N2CCC(n3c([C@@H]4CCCNC4)nc4ccccc43)CC2)CCCCCCC1
Response given: 0 (no)

Challenge: Recorded test call requested for CC(C)(C)c1cc(C=C(C#N)C#N)cc(Br)c1O
Response given: 1 (yes)

Challenge: Recorded test call requested for CC(=Cc1csc(C)n1)[C@@H]1C[C@H]2O[C@]2(C)CCC[C@H](C)[C@@H](O)[C@@H](C)C(=O)C(C)(C)[C@@H](O)CC(=O)O1
Response given: 1 (yes)

Challenge: Recorded test call requested for O=C(O)COc1ccccc1
Response given: 0 (no)

Challenge: Recorded test call requested for NC1=NC(=O)N2CC12 (centres undefined)
Response given: 0 (no)

Challenge: Recorded test call requested for CCOC(=O)Nc1ccc(NCc2ccc(F)cc2)cc1N
Response given: 0 (no)

Challenge: Recorded test call requested for CC(C)(O)C=CC(=O)[C@](C)(O)[C@H]1[C@H](O)C[C@]2(C)[C@@H]3CC=C4[C@@H](C=C(O)C(=O)C4(C)C)[C@]3(C)C(=O)C[C@@]12C
Response given: 1 (yes)

Challenge: Recorded test call requested for COc1cc([C@@H]2c3cc4c(cc3[C@@H](O)C3COC(=O)C32)OCO4)cc(OC)c1O (some centres undefined)
Response given: 1 (yes)

Challenge: Recorded test call requested for C[C@@H]1CC[C@@]2(OC1)O[C@H]1C[C@H]3[C@@H]4CC=C5C[C@@H](O[C@@H]6O[C@H](CO)[C@@H](O[C@@H]7O[C@@H](C)[C@H](O)[C@@H](O)[C@@H]7O)[C@H](O)[C@@H]6O[C@@H]6O[C@@H](C)[C@H](O)[C@@H](O)[C@@H]6O)CC[C@]5(C)[C@@H]4CC[C@]3(C)[C@@H]1[C@H]2C
Response given: 1 (yes)

Challenge: Recorded test call requested for O=[N+]([O-])c1ccc([As](=O)(O)O)cc1
Response given: 0 (no)

Challenge: Recorded test call requested for CC(=O)O[C@@]12CO[C@H]1C[C@H](O)[C@@]1(C)C(=O)[C@H](O)C3=C(C)[C@@H](O)C[C@@](O)([C@@H](OC(=O)c4ccccc4)[C@@H]21)C3(C)C
Response given: 1 (yes)

Challenge: Recorded test call requested for Cc1cc(O)ccc1Cl
Response given: 0 (no)

Challenge: Recorded test call requested for Cc1ccccc1-n1c(Cn2cnc3c(N)ncnc32)nc2cccc(C)c2c1=O
Response given: 1 (yes)

Challenge: Recorded test call requested for C=C1C[C@H]2[C@H]3CCC(=O)[C@@]3(C)CC[C@@H]2[C@@]2(C)C=CC(=O)C=C12
Response given: 0 (no)

Challenge: Recorded test call requested for CC1=C(C(=O)O)N2C(=O)[C@@H](N)[C@H]2SC1
Response given: 0 (no)

Challenge: Recorded test call requested for c1cc2c(cc1[C@H]1OC[C@H]3[C@H]1CO[C@H]3c1ccc3c(c1)OCO3)OCO2
Response given: 0 (no)

// provenance: PubChem BioAssay (NCATS)
